# Tested on: 786-0 renal
# test: NCI tumour cell line growth inhibition, 48 h
Collected GI50 values appear next to each entry.
readout.kind: GI50

smiles_str=Clc1ccc(Nc2ccnc(N3CCN(c4ccnc5cc(Cl)ccc45)CC3)n2)cc1 system="786-0 renal" result="2380 nM"
smiles_str=Cc1cc(O)cc(C)c1/C=C/c1cncc(C(N)=O)c1 system="786-0 renal" result="8600 nM"
smiles_str=C=C1C(=O)O[C@H]2[C@H]1CC/C(C=Nc1c(N)cc(C(F)(F)F)cc1C(F)(F)F)=C\CC[C@@]1(C)O[C@@H]21 system="786-0 renal" result="2040 nM"
smiles_str=S=C(NCCNC(=S)[S][Sn]([c]1ccccc1)([c]1ccccc1)[c]1ccccc1)[S][Sn]([c]1ccccc1)([c]1ccccc1)[c]1ccccc1 system="786-0 renal" result="36.6 nM"

###

# Test system: HOP-62 NSCLC
# test: NCI tumour cell line growth inhibition, 48 h
Where a SMILES comes first, the peptide text is derived from it. Bridges are numbered along the chain shown (N, C = ends). [ ]: non-standard residue; d: D form. The star is where a group is joined. ξ: configuration not given here. ξDab(CH2SO3H) = NC(CCNCS(=O)(=O)O)C(=O)O; Heptanoyl(6-Me) = CC(C)CCCCC(=O)*; Dab = NCC[CH](N)C(=O)O
readout.kind: TGI

compound=O=C(O)c1cc(=O)c2c(OCC(O)COc3cccc4oc(C(=O)O)cc(=O)c34)cccc2o1 system="HOP-62 NSCLC" result="> 100 µM"
compound=Cn1nc(C(F)(F)F)cc1-c1c[nH]c(OCc2ccc(Cl)cc2)c(-c2ccc(Cl)c(C(F)(F)F)c2)c1=O system="HOP-62 NSCLC" result="3.55 µM"
compound=O=C(SC1=NCCN1)c1cccc2ccccc12 system="HOP-62 NSCLC" result="> 100 µM"
compound=C=C(C)[C@@]1(O)CCCC[C@@H]1CC(Sc1ccccc1)Sc1ccccc1 system="HOP-62 NSCLC" result="35 µM"
compound="CCC(C)C1NC(=O)C(CCNCS(=O)(=O)O)NC(=O)C(NC(=O)C(CCNCS(=O)(=O)O)NC(=O)C(NC(=O)C(CCNCS(=O)(=O)O)NC(=O)CCCCC(C)C)C(C)O)CCNC(=O)C(C(C)O)NC(=O)C(CCNCS(=O)(=O)O)NC(=O)C(CCNCS(=O)(=O)O)NC(=O)C(C(C)CC)NC1=O (centres undefined) ({Heptanoyl(6-Me)}-[ξDab(CH2SO3H)]T[ξDab(CH2SO3H)][Dab][ξDab(CH2SO3H)]II[ξDab(CH2SO3H)][ξDab(CH2SO3H)]T; lactam 4-C; configuration not given here)" system="HOP-62 NSCLC" result="> 25 µM"
compound=COc1ccc(-c2cc(-c3ccc(O)cc3O)c(C#N)c(=O)[nH]2)cc1 system="HOP-62 NSCLC" result="41.1 µM"
compound=COc1ccc(C2=C(N)c3c(Cl)cccc3C2=O)cc1 system="HOP-62 NSCLC" result="> 100 µM"
compound="CC(C)(C)[Si](C)(C)OCC1OC(n2cc(I)c(=O)[nH]c2=O)C(O[Si](C)(C)C(C)(C)C)C1O[Si](C)(C)C(C)(C)C (centres undefined)" system="HOP-62 NSCLC" result="39.8 µM"
compound="CCCCNC(=O)C1C(=O)N(CCCC)C(=O)/C1=N\\N (centres undefined)" system="HOP-62 NSCLC" result="> 100 µM"
compound="CC[C@@H](C(=O)[C@H](C)[C@H](O)[C@@H](C)[C@H]1O[C@H]([C@@H](CC)C(=O)N(CC)CC)CC[C@H]1C)C1O[C@]2(C=C[C@@H](O)[C@]3(CC[C@@](C)([C@H]4CC[C@](O)(CC)[C@H](C)O4)O3)O2)[C@H](C)C[C@@H]1C (some centres undefined)" system="HOP-62 NSCLC" result="19.5 µM"
compound=N=C(N)SCc1c2ccccc2c(CSC(=N)N)c2ccccc12 system="HOP-62 NSCLC" result="26.5 µM"
compound=CN(C)CCCSc1nc2c(c(=N)n1-c1ccccc1)c(=S)n(-c1ccccc1)c(=S)n2-c1ccccc1 system="HOP-62 NSCLC" result="3.4 µM"
compound=CC[C@@]1(O)C(=O)OCc2c1cc1n(c2=O)Cc2cc3cccc([N+](=O)[O-])c3nc2-1 system="HOP-62 NSCLC" result="0.582 µM"
compound=Cn1ncc2c(Nc3cccc(Cl)c3)nc(Nc3cccc(Cl)c3)nc21 system="HOP-62 NSCLC" result="68.6 µM"
compound="CC(C)CC(=O)NC(C(=O)NC(C(=O)NC(CC(C)C)C(O)CC(=O)NC(C)C(=O)NC(CC(C)C)C(O)CC(=O)O)C(C)C)C(C)C (centres undefined)" system="HOP-62 NSCLC" result="> 100 µM"
compound="CN1CCC2(CC1)NC(=O)c1c(c3ccc(Cl)c(Cl)c3n1C)C2C#N (centres undefined)" system="HOP-62 NSCLC" result="23.2 µM"
compound=O=C1NC(=O)C(C(=O)C(=O)Nc2ccc(Cl)cc2Cl)C(=O)N1 system="HOP-62 NSCLC" result="> 100 µM"
compound=C(=N\Nc1ccccc1)/c1nc2ccccc2nc1/C=N/Nc1ccccc1 system="HOP-62 NSCLC" result="34.6 µM"
compound="O=C1CC2(CCC3=C(O2)c2ccccc2NC(=O)C3)C(=O)c2ccccc2N1 (centres undefined)" system="HOP-62 NSCLC" result="> 100 µM"
compound="CCC(O)C1Cc2c(C)cc3c(c2O1)C(=O)c1ccccc1C3=O (centres undefined)" system="HOP-62 NSCLC" result="> 100 µM"
compound="CC(=O)C1Cn2c(=O)c3cc4ccccc4cc3c(=O)n2C=C1C (centres undefined)" system="HOP-62 NSCLC" result="> 100 µM"
compound=C[C@]12CC[C@H]3[C@@H](CC=C4C[C@@H](O)CC[C@@]43C)[C@@H]1C/C(=C/c1ccccc1)[C@@H]2O system="HOP-62 NSCLC" result="54.8 µM"
compound="CC(C)C(=O)CC(c1ccc(Cl)cc1)N1N=C(C(C)C)CC1c1ccc(Cl)cc1 (centres undefined)" system="HOP-62 NSCLC" result="> 100 µM"
compound=O=C(NNC1=NCCCCN1)Nc1ccc(Cl)cc1 system="HOP-62 NSCLC" result="> 100 µM"
compound=C=CCN1C[C@H](C)N([C@@H](c2ccc(C(=O)N3CCCCC3)cc2)c2cccc(OC)c2)C[C@H]1C system="HOP-62 NSCLC" result="> 100 µM"
compound="COc1ccc(C(O)(c2ccccc2)c2nccc3ccccc23)cc1 (centres undefined)" system="HOP-62 NSCLC" result="> 100 µM"
compound="COc1ccc(OC)c(C2CCc3c(cnc4nc(N)nc(N)c34)C2)c1 (centres undefined)" system="HOP-62 NSCLC" result="26.8 µM"
compound=N=N/C(=C\c1c(O)[nH]c2ccccc12)c1ccccc1 system="HOP-62 NSCLC" result="99.8 µM"
compound=COc1cc(O)c2c(c1)O[C@@H]1OCC[C@H]21 system="HOP-62 NSCLC" result="> 100 µM"
compound="CCC1CCN=C(NS(=O)(=O)c2cc(C)c(Cl)cc2S)N1 (centres undefined)" system="HOP-62 NSCLC" result="> 100 µM"
compound=O=C(O)c1nc2ccc(C(F)(F)F)cc2nc1NCc1ccc(Cl)c(Cl)c1 system="HOP-62 NSCLC" result="32.2 µM"
compound=Cc1ccc(N=NC(=Nc2ccc(Cl)cc2)c2ccc(N(CCC#N)CCC#N)cc2)cc1 system="HOP-62 NSCLC" result="> 100 µM"
compound=CCCCCCCCC/C(=N\NC(=O)c1ccncc1)c1ccc(O)c(O)c1O system="HOP-62 NSCLC" result="16 µM"
compound=C[C@@H]1CCC([C@@H](C)[C@H]2CC[C@H]3[C@@H]4CC[C@H]5C[C@@H](O)CC[C@]5(C)[C@H]4CC[C@]23C)=NC1 system="HOP-62 NSCLC" result="> 51.3 µM"

###

# Tested on: CCRF-CEM leukemia
# test: NCI tumour cell line growth inhibition, 48 h; in the data active = GI50 below about 0.43 µM; inactive = the rest
Outcome codes: 1.0 (active), 0.0 (inactive)

compound=C#CCN(Cc1nc2cc(C(F)(F)F)ccc2nc1-c1ccccc1)c1ccc(C)cc1 group_label=0.0
compound=Cc1nc(-c2nc(-c3ccc(OC(F)(F)F)cc3)no2)nn1Cc1cccc(N2CCC(S(C)(=O)=O)CC2)c1 group_label=0.0
compound=Cc1ccc2c(c1)c(Sc1ccc(C(=O)NO)cc1)c1n2CN(C)CC1 group_label=0.0
compound=Cc1cc(O)cc(C)c1/C=C/c1cncc(C(N)=O)c1 group_label=0.0
compound=C=C1C(=O)O[C@H]2[C@H]1CC/C(C=Nc1c(N)cc(C(F)(F)F)cc1C(F)(F)F)=C\CC[C@@]1(C)O[C@@H]21 group_label=0.0
compound=COc1ccc2c(c1)[nH]c(=O)c1c3ccccc3cn21 group_label=1.0
compound=CCOC(=O)c1cc(C(=O)c2cc(OC)c(OC)c(OC)c2)n2c1ccc1ccccc12 group_label=1.0
compound="CCN1C(=O)N(CC)C2C1NN=c1s/c(=C\\c3ccco3)c(=O)n12 (stereo unspecified)" group_label=1.0
compound=C[C@@H](NC(=O)/C(C#N)=C/c1ccc([N+](=O)[O-])cc1)c1ccccc1 group_label=0.0
compound=CCCCCCCCC/C(=N\NC(=O)c1ccncc1)c1ccc(O)c(O)c1O group_label=1.0
compound=C[C@]12CC[C@@H]3c4cc(O)c(O)cc4CC[C@H]3[C@@H]1CC[C@@H]2O group_label=0.0
compound=COc1ccc(Sc2nc3cc(N)cc(N)c3nc2-c2ccccc2)cc1 group_label=0.0
compound="N#C[Se]CCN1C(=O)C2C(C1=O)[C@H]1C=C[C@@H]2S1 (stereo partly specified)" group_label=0.0
compound=COc1ccc2c(O)c(/C=C3\N=Nc4ccccc43)oc2c1C[C@@H]1CCNC[C@H]1F group_label=0.0
compound="CC(C)(C)[Si](C)(C)OC1[C@@H](O[Si](C)(C)C(C)(C)C)[C@@H](CNC(=O)NC(=O)CF)O[C@H]1n1cnc2c(NC(=O)Nc3ccccc3)ncnc21 (stereo partly specified)" group_label=0.0
compound="Cn1cc(C2=C(c3c4n(c5ccccc35)CCC(CN)C4)C(=O)NC2=O)c2ccccc21 (stereo unspecified)" group_label=0.0
